Test system: 217524-143-R1-J4-PDC spheroids with HUVEC/MSC, viability;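 also: spheroids exposed to agents for seven days before reading; 100% = DMSO vehicle control viability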
Assay: Anticancer human tumor 217524-143-R1-J4-PDC patient-derived pancreatic carcinoma cell line growth inhibition [CLK]
Conditions: second compound 0.0316 µM; first compound 0.1 µM; active compounds read low
Entries and their viability, T/C values follow.
A number alone suffices; assume %.

Solved entries:
- CC(=O)O[C@H]1C(=O)[C@@]2(C)[C@H]([C@H](OC(=O)c3ccccc3)[C@]3(O)C[C@H](OC(=O)[C@H](O)[C@@H](NC(=O)c4ccccc4)c4ccccc4)C(C)=C1C3(C)C)[C@]1(OC(C)=O)CO[C@@H]1C[C@@H]2O + CN1CCN(c2cc(C(=O)Nc3cc4cc(-c5cnn(C)c5)ccc4cn3)ccn2)CC1: 10.6
- C#Cc1c(F)ccc2cc(O)cc(-c3ncc4c(N5CC6CCC(C5)N6)nc(OCC56CCCN5CC(F)C6)nc4c3F)c12 (stereo not given) + CNC(=O)c1ccc(Nc2nc(OC3CCCC3)c3c(-c4ccc5nc(C)oc5c4)c[nH]c3n2)c(OC)c1: 98.2
- O=c1[nH]cc(F)c(=O)[nH]1 + CNC(=O)c1ccc(Nc2nc(OC3CCCC3)c3c(-c4ccc5nc(C)oc5c4)c[nH]c3n2)c(OC)c1: 86.3
- COc1cccc2c1C(=O)c1c(O)c3c(c(O)c1C2=O)CC(O)(C(=O)CO)CC3OC1CC(N)C(O)C(C)O1 (stereo not given) + CNC(=O)c1ccc(Nc2nc(OC3CCCC3)c3c(-c4ccc5nc(C)oc5c4)c[nH]c3n2)c(OC)c1: 32.3
- CCN1CCN(Cc2ccc(Nc3ncc(F)c(-c4cc(F)c5nc(C)n(C(C)C)c5c4)n3)nc2)CC1 + CNC(=O)c1ccc(Nc2nc(OC3CCCC3)c3c(-c4ccc5nc(C)oc5c4)c[nH]c3n2)c(OC)c1: 52.4

Query string: Consider the compound shown here: O=c1[nH]cc(F)c(=O)[nH]1 + CN1CCN(c2cc(C(=O)Nc3cc4cc(-c5cnn(C)c5)ccc4cn3)ccn2)CC1 What is its recorded viability, T/C?
Result string: 74.9

Query string: Consider the compound shown here: COc1ccc([C@@H](O)c2cc(-c3ncnc4cc(N5CCOCC5)ccc34)c(F)cc2Cl)nn1 + CN1CCN(c2cc(C(=O)Nc3cc4cc(-c5cnn(C)c5)ccc4cn3)ccn2)CC1 What is its recorded viability, T/C?
Result string: 59.8

Query string: Consider the compound shown here: Cn1ncnc1[C@H]1c2n[nH]c(=O)c3cc(F)cc(c23)N[C@@H]1c1ccc(F)cc1 + CN1CCN(c2cc(C(=O)Nc3cc4cc(-c5cnn(C)c5)ccc4cn3)ccn2)CC1 What is its recorded viability, T/C?
Result string: 60.3

Query string: Consider the compound shown here: CC1COCCN1c1cc(C2(S(C)(=N)=O)CC2)nc(-c2ccnc3[nH]ccc23)n1 (stereo not given) + CN1CCN(c2cc(C(=O)Nc3cc4cc(-c5cnn(C)c5)ccc4cn3)ccn2)CC1 What is its recorded viability, T/C?
Result string: 79.7

Query string: Consider the compound shown here: O=C(c1cc(Cc2n[nH]c(=O)c3ccccc23)ccc1F)N1CCN(C(=O)C2CC2)CC1 + CN1CCN(c2cc(C(=O)Nc3cc4cc(-c5cnn(C)c5)ccc4cn3)ccn2)CC1 What is its recorded viability, T/C?
Result string: 91.6
